Test: Pharmacokinetics of five alkaloids in rat plasma after oral administration of lotus leaf extract
Assay type: in vivo, Male Sprague-Dawley rats
Conditions: male, Sprague-Dawley, rat, in vivo, po, 2.4 g/kg, rat plasma; oral lotus leaf extract 2.4 g·kg^−1; n = 10; mean ± SD; read-out: MRT(0–∞)
QUANTITY_MEASURED: MRT inf (h)

1) O=C1c2ccccc2-c2c3c(cc4ccnc1c24)OCO3 : 8.17
2) COc1cc2c3c(c1OC)-c1ccccc1C[C@H]3N(C)CC2 : 6.14

* * *

Experiment: Pharmacokinetics of five alkaloids in rat plasma after oral administration of lotus leaf extract
Format: in vivo, Male Sprague-Dawley rats
Conditions: male, Sprague-Dawley, rat, in vivo, po, 2.4 g/kg, rat plasma; oral lotus leaf extract 2.4 g·kg^−1; n = 10; mean ± SD; read-out: Cmax
QUANTITY_MEASURED: Cmax

1. O=C1c2ccccc2-c2c3c(cc4ccnc1c24)OCO3 : 54.7 ng/mL

* * *

Assay: Pharmacokinetics of five alkaloids in rat plasma after oral administration of lotus leaf extract
Assay type: in vivo, Male Sprague-Dawley rats
Conditions: male, Sprague-Dawley, rat, in vivo, po, 2.4 g/kg
Readings of Tmax for the listed compounds
QUANTITY_MEASURED: Tmax (h)

1) COc1cc2c3c(c1OC)C1(C=CC(=O)C=C1)C[C@H]3N(C)CC2 : 4.9
2) COc1cc2c(cc1OC)C(Cc1ccc(O)cc1)N(C)CC2 (centres unmarked) : 0.3

* * *

Test: Pharmacokinetics of five alkaloids in rat plasma after oral administration of lotus leaf extract
Type: in vivo, Male Sprague-Dawley rats
Conditions: male, Sprague-Dawley, rat, in vivo, po, 2.4 g/kg
Readings of MRT inf for the listed compounds
QUANTITY_MEASURED: MRT inf (h)

1. COc1cc2c(cc1OC)C(Cc1ccc(O)cc1)N(C)CC2 (centres unmarked) : 31.9
2. COc1cc2c3c(c1OC)C1(C=CC(=O)C=C1)C[C@H]3N(C)CC2 : 8.36
